Target: human ACC2 (Homo sapiens, UniProt O00763)
Construct: made in house; host or cells: insect cells (baculoviral expression system)
Sequence (O00763 129-2458 limits assumed): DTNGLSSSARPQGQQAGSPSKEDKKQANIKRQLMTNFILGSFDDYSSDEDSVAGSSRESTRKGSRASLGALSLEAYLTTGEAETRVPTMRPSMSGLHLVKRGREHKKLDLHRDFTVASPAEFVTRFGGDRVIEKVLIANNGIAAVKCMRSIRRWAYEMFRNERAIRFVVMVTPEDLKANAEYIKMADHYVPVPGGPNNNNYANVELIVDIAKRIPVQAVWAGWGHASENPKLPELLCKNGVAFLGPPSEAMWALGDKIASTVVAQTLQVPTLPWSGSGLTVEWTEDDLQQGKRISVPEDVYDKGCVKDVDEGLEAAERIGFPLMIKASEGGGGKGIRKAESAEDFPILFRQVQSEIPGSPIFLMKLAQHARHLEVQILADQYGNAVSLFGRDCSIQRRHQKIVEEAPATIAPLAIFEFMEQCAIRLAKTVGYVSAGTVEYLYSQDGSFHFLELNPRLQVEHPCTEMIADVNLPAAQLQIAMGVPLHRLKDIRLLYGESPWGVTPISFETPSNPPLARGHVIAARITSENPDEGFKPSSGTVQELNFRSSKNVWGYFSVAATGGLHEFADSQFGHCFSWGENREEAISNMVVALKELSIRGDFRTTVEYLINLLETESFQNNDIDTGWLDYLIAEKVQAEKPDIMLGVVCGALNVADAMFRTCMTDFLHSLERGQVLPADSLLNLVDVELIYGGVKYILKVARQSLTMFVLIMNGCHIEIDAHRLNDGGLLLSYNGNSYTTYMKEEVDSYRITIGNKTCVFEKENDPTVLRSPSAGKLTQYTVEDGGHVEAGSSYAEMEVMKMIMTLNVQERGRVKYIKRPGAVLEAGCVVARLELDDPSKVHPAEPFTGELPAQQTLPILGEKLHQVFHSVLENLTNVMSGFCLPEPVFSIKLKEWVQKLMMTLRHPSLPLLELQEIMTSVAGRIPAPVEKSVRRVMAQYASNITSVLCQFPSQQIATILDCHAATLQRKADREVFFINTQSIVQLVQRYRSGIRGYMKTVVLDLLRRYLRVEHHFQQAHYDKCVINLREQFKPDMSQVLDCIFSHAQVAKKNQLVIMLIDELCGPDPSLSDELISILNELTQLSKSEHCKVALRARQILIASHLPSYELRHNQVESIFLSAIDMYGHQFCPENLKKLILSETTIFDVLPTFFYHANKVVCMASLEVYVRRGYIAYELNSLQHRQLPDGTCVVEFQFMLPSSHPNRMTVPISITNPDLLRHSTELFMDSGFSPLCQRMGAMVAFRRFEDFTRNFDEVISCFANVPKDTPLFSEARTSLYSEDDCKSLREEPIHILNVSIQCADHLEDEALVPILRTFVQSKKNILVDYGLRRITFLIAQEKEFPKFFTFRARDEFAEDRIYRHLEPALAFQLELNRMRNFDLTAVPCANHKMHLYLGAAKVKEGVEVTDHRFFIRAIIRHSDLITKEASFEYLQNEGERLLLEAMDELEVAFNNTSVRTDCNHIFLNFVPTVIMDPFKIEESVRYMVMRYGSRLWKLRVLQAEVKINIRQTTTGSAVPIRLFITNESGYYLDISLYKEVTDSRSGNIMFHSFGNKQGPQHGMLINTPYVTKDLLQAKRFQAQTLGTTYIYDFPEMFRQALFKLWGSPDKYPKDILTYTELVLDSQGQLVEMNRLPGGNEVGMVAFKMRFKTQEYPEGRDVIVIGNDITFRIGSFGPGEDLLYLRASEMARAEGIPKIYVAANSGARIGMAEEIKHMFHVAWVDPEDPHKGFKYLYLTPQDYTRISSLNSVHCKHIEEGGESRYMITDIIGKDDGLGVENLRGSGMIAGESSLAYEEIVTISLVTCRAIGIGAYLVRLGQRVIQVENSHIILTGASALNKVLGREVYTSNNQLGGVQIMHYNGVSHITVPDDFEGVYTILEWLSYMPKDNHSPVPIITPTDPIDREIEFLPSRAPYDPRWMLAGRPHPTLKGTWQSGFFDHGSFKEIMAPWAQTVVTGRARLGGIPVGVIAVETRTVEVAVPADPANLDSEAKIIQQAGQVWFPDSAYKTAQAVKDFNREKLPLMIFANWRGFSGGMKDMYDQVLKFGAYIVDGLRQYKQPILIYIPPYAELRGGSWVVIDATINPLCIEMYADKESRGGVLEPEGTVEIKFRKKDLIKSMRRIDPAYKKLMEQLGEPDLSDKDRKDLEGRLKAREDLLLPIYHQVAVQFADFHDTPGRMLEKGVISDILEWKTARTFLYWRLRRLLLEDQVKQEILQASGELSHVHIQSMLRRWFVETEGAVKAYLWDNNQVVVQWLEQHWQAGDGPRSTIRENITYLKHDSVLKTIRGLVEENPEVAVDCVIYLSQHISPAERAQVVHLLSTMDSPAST
Assay: ACC2 assay, spectrophotometric 384 well assay (NADH-linked, coupled lactate dehydrogenase/pyruvate kinase)
Format: biochemical
Settings: ACC2 assay, hACC2 construct lacking 128 N-terminal amino acids, 25° C., 340 nm; read-out: IC50
Property name: IC50 (µM)

P = CC(=O)N[C@@H](C)c1ccc(C2CCN(c3ncc(C(=O)N4CC5CCCC5C4)cn3)CC2)cc1 (stereo partly shown)
Q = CCCOc1ccc(N2CCC(c3ccc([C@H](C)NC(C)=O)cc3)CC2)c(C#N)c1
R = CC(=O)N[C@@H](C)c1ccc(C2CCN(c3ccc4c(n3)C(=O)CC4)CC2)cc1
S = CCCOc1ccc(N2CCC(c3ccc([C@H](C)NC(C)=O)cc3)CC2)cc1C#N
Data request: Descending by IC50 please, for everything listed above. A complete answer lists every label in the requested sequence.
Data returned: R, S, P, Q
(R: 5.2 µM, S: 3.2 µM, P: 0.53 µM, Q: 0.09 µM)

----------
Molecular target: human ACC2 (Homo sapiens, UniProt O00763)
Construct: made in house; host or cells: insect cells (baculoviral expression system)
Experiment: ACC2 assay, spectrophotometric 384 well assay (NADH-linked, coupled lactate dehydrogenase/pyruvate kinase)
Assay type: biochemical
Details: ACC2 assay, hACC2 construct lacking 128 N-terminal amino acids, 25° C., 340 nm; read-out: IC50
Property name: IC50 (nM)

Check out these entries, answers already filled in.
Molecular string: CCCOc1ccc(N2CCC(c3ccc([C@H](C)NC(=O)N(C)C)cc3)CC2)nc1
Result number: 170

Molecular string: COc1cc(-c2cnc(N3CCC(c4ccc([C@H](C)NC(C)=O)cc4)CC3)nc2)ccc1C#N
Result number: 140

a = CC(=O)N[C@@H](C)c1ccc(C2CCN(c3ncc(-c4ccc(C#N)nc4)cn3)CC2)cc1
b = CC(=O)N[C@@H](C)c1ccc(C2CCN(c3ccnc(NC4CCOCC4)n3)CC2)cc1
Data request: I'm curious, which of these has a smaller IC50 number: a or b ? Write down the label of the entry you select.
Data returned: a
(a: 150 nM, b: 15600 nM)

----------
Molecular target: human ACC2 (Homo sapiens)
Construct: made in house; host or cells: insect cells (baculoviral expression system)
Test: ACC2 assay, spectrophotometric 384 well assay (NADH-linked, coupled lactate dehydrogenase/pyruvate kinase)
Assay type: biochemical
Settings: ACC2 assay, hACC2 construct lacking 128 N-terminal amino acids, 25° C., 340 nm; read-out: IC50
pIC50: −log10 of the molar value.
Property name: pIC50

Compound: CC(=O)N[C@@H](C)c1ccc(C2CCN(c3ncc(-c4ccc5[nH]ncc5c4)cn3)CC2)cc1 [Example 10.86]
Property name: pIC50
Result number: 5.23

Compound: CCC(C)Oc1ccc(N2CCC(c3ccc([C@H](C)NC(C)=O)cc3)CC2)cc1C (some centres unmarked) [Example 8.51]
Property name: pIC50
Result number: 6.12

Compound: C[C@H](NC(=O)C1CC1)c1ccc(C2CCN(c3ncc(-c4ccccc4)cn3)CC2)cc1 [Example 10.105]
Property name: pIC50
Result number: 7.00

Compound: CCCOc1ccc(N2CCC(c3ccc([C@H](C)NC(C)=O)cc3)CC2)c(C)c1 [Example 1.32]
Property name: pIC50
Result number: 7.05

Compound: CC(=O)N[C@@H](C)c1ccc(C2CCN(c3ccc4ccccc4n3)CC2)cc1 [Example 4.3]
Property name: pIC50
Result number: 6.35

1 = CC(=O)N[C@@H](C)c1ccc(C2CCN(c3ccc(OC(C)C)cc3C#N)CC2)cc1 [Example 1.50]
2 = COCCOc1cccc(N2CCC(c3ccc([C@H](C)NC(C)=O)cc3)CC2)c1 [Example 9.7]
3 = CC(=O)N[C@@H](C)c1ccc(C2CCN(c3ncc(C(=O)NCCC(=O)N(C)C)cn3)CC2)cc1 [Example 18.66]
4 = CC(=O)N[C@@H](C)c1ccc(C2CCN(c3cc(Oc4cccc(F)c4)ncn3)CC2)cc1 [Example 11.27]
Data request: Hey, quick one: sort these by pIC50, largest value first please. A complete answer lists every label in the requested sequence.
Data returned: 1, 4, 2, 3
